Target: JAK1 (Homo sapiens, UniProt P23458)
Construct: JAK1 (aa 850-1154) and TYK2 (aa 871-1187) are expressed with an N-terminally fused GST-tag; GST (N)
Sequence (P23458 850-1154): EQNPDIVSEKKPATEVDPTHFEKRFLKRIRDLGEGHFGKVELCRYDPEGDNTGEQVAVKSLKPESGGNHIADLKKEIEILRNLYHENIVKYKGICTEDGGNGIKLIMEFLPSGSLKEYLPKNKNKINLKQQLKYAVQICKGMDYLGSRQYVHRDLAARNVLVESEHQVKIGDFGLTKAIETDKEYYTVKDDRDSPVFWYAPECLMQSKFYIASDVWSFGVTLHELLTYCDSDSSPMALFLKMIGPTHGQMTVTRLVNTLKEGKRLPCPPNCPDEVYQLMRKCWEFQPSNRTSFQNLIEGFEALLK
Assay: JAK1 kinase assay (HTRF, inhibition of phosphorylation of a synthetic peptide)
Conditions: catalytic domain aa 850-1154, GST-tag; 7 μM ATP (Km); read-out: JAK1 kinase inhibitory activity (EC50)
Entries and their EC50 values follow.

compound | EC50
Cc1cc(C(=O)N2CCN(c3ncnc4[nH]ccc34)CC3(CC3)C2)sn1 [Example 233] | 100 to 1000 nM
N#CC1(C(=O)N2CCN(c3ncnc4[nH]ccc34)CC3(CC3)C2)CCCC1 [Example 40] | > 1000 nM
Cc1cc(C(=O)N2CCCN(c3ncnc4[nH]ccc34)CC23CC3)ccn1 [Example 172] | 100 to 1000 nM
CC(C)N(C)C(=O)N1CCN(c2ncnc3[nH]ccc23)CC2(CC2)C1 [Example 223] | 100 to 1000 nM
Cc1ccccc1C(=O)N1CCN(c2ncnc3[nH]ccc23)CC2(CC2)C1 [Example 109] | > 1000 nM
N#Cc1cccc(CC(=O)N2CCN(c3ncnc4[nH]ccc34)CCC23CC3)c1 [Example 47] | > 1000 nM
N#Cc1ccc(OCC(=O)N2CCN(c3ncnc4[nH]ccc34)CC3(CC3)C2)cc1 [Example 106] | < 100 nM
O=C(Cc1ccccc1)N1CCN(c2ncnc3[nH]ccc23)CC2(CC2)C1 [Example 259] | 100 to 1000 nM
O=C(c1cc2c(s1)CCC2)N1CCN(c2ncnc3[nH]ccc23)CC2(CC2)C1 [Example 21] | 100 to 1000 nM
O=C(c1cc[nH]n1)N1CCCN(c2ncnc3[nH]ccc23)CC12CC2 [Example 183] | 100 to 1000 nM
N#CCOc1ccc(C(=O)N2CCN(c3ncnc4[nH]ccc34)CC3(CC3)C2)cc1 [Example 15] | 100 to 1000 nM
CC(C)(C)c1ccc(CC(=O)N2CCN(c3ncnc4[nH]ccc34)CC3(CC3)C2)cc1 [Example 267] | 100 to 1000 nM
CNS(=O)(=O)c1csc(C(=O)N2CCN(c3ncnc4[nH]ccc34)CC3(CC3)C2)c1 [Example 28] | 100 to 1000 nM
O=C(c1ccccc1Cl)N1CCCN(c2ncnc3[nH]ccc23)CC12CC2 [Example 178] | 100 to 1000 nM
O=C(Cc1ccc(F)cc1)N1CCCN(c2ncnc3[nH]ccc23)CC12CC2 [Example 159] | 100 to 1000 nM
CCCCN1CCCN(c2ncnc3[nH]ccc23)CC12CC2 [Example 281] | 100 to 1000 nM
Cc1nocc1C(=O)N1CCCN(c2ncnc3[nH]ccc23)CC12CC2 [Example 245] | > 1000 nM
O=C(Cc1ccc(Br)cc1)N1CCN(c2ncnc3[nH]ccc23)CC2(CC2)C1 [Example 264] | < 100 nM
Cn1c(C(=O)N2CCN(c3ncnc4[nH]ccc34)CC3(CC3)C2)ccc1S(N)(=O)=O [Example 35] | 100 to 1000 nM
CNS(=O)(=O)c1cc(C(=O)N2CCN(c3ncnc4[nH]ccc34)CC3(CC3)C2)sc1C [Example 26] | 100 to 1000 nM
CCCCC(=O)Nc1nc(N2CCNCC3(CC3)C2)c2cc[nH]c2n1 [Example 294] | > 1000 nM
O=C(c1cnsc1)N1CCCN(c2ncnc3[nH]ccc23)CC12CC2 [Example 211] | 100 to 1000 nM
N#Cc1ccccc1C(=O)N1CCCN(c2ncnc3[nH]ccc23)CC12CC2 [Example 162] | > 1000 nM
CC1CN(c2ncnc3[nH]ccc23)CC2(CC2)CN1C(=O)Nc1ccccc1 (centres unmarked) [Example 99] | > 1000 nM
Cc1cnc(C(=O)N2CCCN(c3ncnc4[nH]ccc34)CC23CC3)cn1 [Example 197] | 100 to 1000 nM
O=C(c1cncc(F)c1)N1CCCN(c2ncnc3[nH]ccc23)CC12CC2 [Example 214] | 100 to 1000 nM
Cc1noc(C)c1CC(=O)N1CCN(c2ncnc3[nH]ccc23)CC2(CC2)C1 [Example 249] | 100 to 1000 nM
O=C(c1cc2ccccc2s1)N1CCN(c2ncnc3[nH]ccc23)CC2(CC2)C1 [Example 18] | < 100 nM
CNS(=O)(=O)c1csc(C(=O)N2CCN(c3ncnc4[nH]ccc34)CC3(CC3)C2)c1C [Example 23] | 100 to 1000 nM
CCCCC(=O)Nc1nc(N2CCCN(Cc3ccccc3)C3(CC3)C2)c2cc[nH]c2n1 [Example 283] | > 1000 nM
N#Cc1ccc(C(=O)N2CCN(c3ncnc4[nH]ccc34)CC3(CC3)C2)s1 [Example 51] | < 100 nM
O=C(c1cccnc1)N1CCN(c2ncnc3[nH]ccc23)CC2(CC2)C1 [Example 127] | 100 to 1000 nM
Cc1cc(CC(=O)N2CCN(c3ncnc4[nH]ccc34)CC3(CC3)C2)n[nH]1 [Example 248] | 100 to 1000 nM
N#Cc1csc(C(=O)N2CCN(c3ncnc4[nH]ccc34)CC3(CC3)C2)c1 [Example 19] | 100 to 1000 nM
Cn1cc(CC(=O)N2CCN(c3ncnc4[nH]ccc34)CC3(CC3)C2)cn1 [Example 253] | 100 to 1000 nM

----------
Biological target: TYK2 (Homo sapiens)
Construct: JAK1 (aa 850-1154) and TYK2 (aa 871-1187) are expressed with an N-terminally fused GST-tag; GST (N)
Sequence (P29597 871-1187): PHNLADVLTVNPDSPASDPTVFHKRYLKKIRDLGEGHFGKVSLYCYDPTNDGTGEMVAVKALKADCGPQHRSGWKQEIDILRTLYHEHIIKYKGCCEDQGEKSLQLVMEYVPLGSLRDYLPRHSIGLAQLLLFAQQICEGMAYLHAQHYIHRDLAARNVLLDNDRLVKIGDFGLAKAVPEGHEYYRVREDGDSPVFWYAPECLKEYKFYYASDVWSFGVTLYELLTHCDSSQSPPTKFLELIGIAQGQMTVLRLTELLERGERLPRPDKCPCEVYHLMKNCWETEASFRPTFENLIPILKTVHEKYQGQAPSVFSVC
Experiment: TYK2 kinase assay (HTRF, inhibition of phosphorylation of a synthetic peptide)
Conditions: catalytic domain aa 871-1187, GST-tag; 13 μM ATP (Km); read-out: TYK2 kinase inhibitory activity (EC50)
Protocol: JAK1, JAK2, JAK3 and TYK2 Kinase Assays: Human baculovirus-expressed JAK1, 2, 3 and TYK2 were purchased from Carna Biosciences, Inc. All four purified enzymes contain only the catalytic domain. […] Inhibition of phosphorylation of a synthetic peptide was measured in an HTRF-based assay using the TK substrate-Biotin from the CisbioHTRFKinEASE TK kit. […] The HTRF signal is read using an Envision plate reader.
pEC50: −log10 of the molar value.
value type: pEC50

compound string | value type | endpoint result
N#CCCC(=O)N1CCN(c2ncnc3[nH]ccc23)CC2(CC2)C1 | pEC50 | 6.00 to 7.00
N#CCC(=O)N1CCN(c2ncnc3[nH]ccc23)CC2(CC2)C1 | pEC50 | 6.00 to 7.00
CNS(=O)(=O)c1cc(C(=O)N2CCN(c3ncnc4[nH]ccc34)CC3(CC3)C2)sc1C | pEC50 | < 6.00
O=C(c1ccon1)N1CCCN(c2ncnc3[nH]ccc23)CC12CC2 | pEC50 | 6.00 to 7.00
NS(=O)(=O)c1ccc(NC(=O)C(=O)N2CCN(c3ncnc4[nH]ccc34)CC3(CC3)C2)cc1 | pEC50 | 6.00 to 7.00
NS(=O)(=O)c1cccc(C(=O)N2CCN(c3ncnc4[nH]ccc34)CC3(CC3)C2)c1 | pEC50 | < 6.00
Cc1cc(C(=O)N2CCN(c3ncnc4[nH]ccc34)CC3(CC3)C2)ccc1S(N)(=O)=O | pEC50 | < 6.00
NS(=O)(=O)c1ccc2[nH]c(C(=O)N3CCN(c4ncnc5[nH]ccc45)CC4(CC4)C3)cc2c1 | pEC50 | 6.00 to 7.00

----------
Reported pEC50 is given for each of the following compounds.
Target: JAK2 (Homo sapiens)
Construct: All four purified enzymes contain only the catalytic domain; His (N)
Sequence (O60674 849-1124 limits assumed): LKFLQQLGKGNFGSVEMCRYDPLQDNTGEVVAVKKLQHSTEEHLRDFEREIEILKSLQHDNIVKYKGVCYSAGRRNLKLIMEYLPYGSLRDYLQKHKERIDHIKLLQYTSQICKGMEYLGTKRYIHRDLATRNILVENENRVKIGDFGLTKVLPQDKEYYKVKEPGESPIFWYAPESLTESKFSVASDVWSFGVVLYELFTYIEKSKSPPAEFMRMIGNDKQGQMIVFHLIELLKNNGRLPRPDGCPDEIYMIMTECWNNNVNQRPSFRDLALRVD
Assay: JAK2 kinase assay (HTRF, inhibition of phosphorylation of a synthetic peptide)
Settings: catalytic domain, His-tag; 4 μM ATP (Km); read-out: JAK2 kinase inhibitory activity (EC50)
pEC50: −log10 of the molar value.

compound string | pEC50
c1nc(N2CCNC3(CC2)CC3)c2cc[nH]c2n1 | < 6.00
O=C(c1ccccn1)N1CCN(c2ncnc3[nH]ccc23)CC2(CC2)C1 | 6.00 to 7.00
O=C(c1cncc(F)c1)N1CCCN(c2ncnc3[nH]ccc23)CC12CC2 | 6.00 to 7.00
NS(=O)(=O)c1ccc(C(=O)N2CCN(c3ncnc4[nH]ccc34)CC3(CC3)C2)cc1 | > 7.00

----------
Target: JAK2 (Homo sapiens)
Construct: All four purified enzymes contain only the catalytic domain; His (N)
Test: JAK2 kinase assay (HTRF, inhibition of phosphorylation of a synthetic peptide)
Conditions: catalytic domain, His-tag; 4 μM ATP (Km); read-out: JAK2 kinase inhibitory activity (EC50)
pEC50: −log10 of the molar value.

compound string | target or system | pEC50
CN(C)S(=O)(=O)c1ccc(C(=O)N2CCN(c3ncnc4[nH]ccc34)CC3(CC3)C2)cc1 | JAK2 (Homo sapiens) | 6.00 to 7.00
N#Cc1ccc(C(=O)N2CCN(c3ncnc4[nH]ccc34)CC3(CC3)C2)cc1F | JAK2 (Homo sapiens) | 6.00 to 7.00
O=C(c1ccc(S(=O)(=O)NCCc2cccs2)cc1)N1CCN(c2ncnc3[nH]ccc23)CC2(CC2)C1 | JAK2 (Homo sapiens) | 6.00 to 7.00
Nc1nc(N2CCN(Cc3ccccc3)CC3(CC3)C2)c2cc[nH]c2n1 | JAK2 (Homo sapiens) | < 6.00
O=C(Cc1ccc(C(F)(F)F)cc1)N1CCN(c2ncnc3[nH]ccc23)CC2(CC2)C1 | JAK2 (Homo sapiens) | > 7.00
COc1ccc(CC(=O)N2CCN(c3ncnc4[nH]ccc34)CC3(CC3)C2)cc1 | JAK2 (Homo sapiens) | > 7.00
O=C(c1cncc(F)c1)N1CCN(c2ncnc3[nH]ccc23)CC2(CC2)C1 | JAK2 (Homo sapiens) | 6.00 to 7.00
O=C(c1ccc(O)nc1)N1CCN(c2ncnc3[nH]ccc23)CC2(CC2)C1 | JAK2 (Homo sapiens) | 6.00 to 7.00
